TEST: Displacement of [3H]-FNZ from benzodiazepine binding site of GABAA receptor in bovine synaptosomal membranes after 1 hr by scintillation counting method
Assay type: cell membranes, Bos taurus
Decision: Ki beneath 300 pM gives Satisfied; Ki meeting or exceeding 300 pM gives Not satisfied.

>>> assigned_class("COc1ccc(-n2nc3c4cc(C)ccc4[nH]cc-3c2=O)cc1")
"Satisfied"
>>> assigned_class("Cc1ccc2[nH]cc3c(=O)n(-c4ccccc4F)nc-3c2c1")
"Satisfied"
>>> assigned_class("Cc1ccc2[nH]cc3c(=O)n(-c4ccccc4)nc-3c2c1")
"Not satisfied"
>>> assigned_class("COc1ccc2[nH]cc3c(=O)n(-c4ccccc4F)nc-3c2c1")
"Not satisfied"
>>> assigned_class("COc1ccc(-n2nc3c4cc(Br)ccc4[nH]cc-3c2=O)cc1")
"Satisfied"
>>> assigned_class("COc1ccc2[nH]cc3c(=O)n(-c4ccc(F)cc4)nc-3c2c1")
"Not satisfied"
>>> assigned_class("O=c1c2c[nH]c3ccc(Br)cc3c-2nn1-c1ccccc1")
"Not satisfied"
>>> assigned_class("O=c1c2c[nH]c3ccc(Br)cc3c-2nn1-c1ccc(F)cc1")
"Not satisfied"
>>> assigned_class("Cc1ccc2[nH]cc3c(=O)n(-c4ccc(F)cc4)nc-3c2c1")
"Not satisfied"

====

TEST: Displacement of [3H]-FNZ from benzodiazepine binding site of GABAA receptor in bovine synaptosomal membranes after 1 hr by scintillation counting method
Type: cell membranes, Bos taurus
pIC50: −log10 of the molar value.
pIC50 listing for selected molecules.
OBSERVED_PROPERTY: pIC50

>>> reported_value("COc1ccc(-n2nc3c4cc(Br)ccc4[nH]cc-3c2=O)cc1")
9.49
>>> reported_value("Cc1ccc2[nH]cc3c(=O)n(-c4ccccc4F)nc-3c2c1")
9.43
>>> reported_value("COc1ccc(-n2nc3c4cc(C)ccc4[nH]cc-3c2=O)cc1")
9.27
>>> reported_value("Cc1ccc2[nH]cc3c(=O)n(-c4ccc(F)cc4)nc-3c2c1")
8.94
>>> reported_value("Cc1ccc2[nH]cc3c(=O)n(-c4ccccc4)nc-3c2c1")
9.23
>>> reported_value("O=c1c2c[nH]c3ccc(Br)cc3c-2nn1-c1ccccc1")
9.08
>>> reported_value("O=c1c2c[nH]c3ccc(Br)cc3c-2nn1-c1ccc(F)cc1")
8.83
>>> reported_value("COc1ccc2[nH]cc3c(=O)n(-c4ccc(F)cc4)nc-3c2c1")
8.73
>>> reported_value("COc1ccc2[nH]cc3c(=O)n(-c4ccccc4F)nc-3c2c1")
8.82

The values you see were collected from ChEMBL document CHEMBL4229422.
